- Species on record: Rattus norvegicus
- assaySummary: In Vitro superoxide scavenging activity by the analysis of variance method at concentration of 0.5 x 10E4 M
- Format: functional
Decide by inhibition: equal to or exceeding 20% means 1, less means 0.

compoundsmiles=Oc1ccc(-c2nn[nH]n2)cc1O label=1
compoundsmiles=O=C(O)Cn1nnc(-c2cc(O)c(O)c(O)c2)n1 label=1
compoundsmiles=Oc1cc(-c2nn[nH]n2)cc(O)c1O label=1
compoundsmiles=O=C(O)CSc1nnc(-c2cc(O)c(O)c(O)c2)n1-c1ccccc1 label=1
compoundsmiles=O=C(O)CSc1nnc(-c2ccc(O)c(O)c2)n1-c1ccccc1 label=0
compoundsmiles=O=C(O)Cn1nnc(-c2ccc(O)c(O)c2)n1 label=0

This collection of values is drawn from ChEMBL document CHEMBL1122529.
